Please provide measured LC50 for the entries that follow.
# Test system: Panonychus ulmi
# measurement-notes: Insecticidal activity against Panonychus ulmi PSR-TK in plum tree leaf assessed as mortality at larvae stage compound treated by spray application measured after 7 to 8 days treatment
# Format: functional
Reply with just the number (in µg/mL).

Task: State LC50 (Panonychus ulmi) of Cc1cc(C)c(C2=C(OC(=O)CC(C)(C)C)C3(CCCC3)OC2=O)c(C)c1 .
Result: 3.73

Task: State LC50 (Panonychus ulmi) of C[C@@H]1[C@@H](c2ccc(Cl)cc2)SC(=O)N1C(=O)NC1CCCCC1 .
Result: 4.05

Task: State LC50 (Panonychus ulmi) of CCOC(=O)OC1=C(c2cc(C)ccc2C)C(=O)N[C@]12CC[C@@H](OC)CC2 .
Result: 538

----------
# System: Panonychus ulmi
# measurement-notes: Insecticidal activity against Panonychus ulmi PSR-TK in plum tree leaf assessed as mortality at larvae stage compound treated by spray application measured after 7 to 8 days treatment
# Type: functional
result-type: LC50

Task: State LC50 (Panonychus ulmi) of CCC(C)(C)C(=O)OC1=C(c2ccc(Cl)cc2Cl)C(=O)OC12CCCCC2 .
Result: > 10000 µg/mL

Task: State LC50 (Panonychus ulmi) of CCOc1cc(C(C)(C)C)ccc1C1COC(c2c(F)cccc2F)=N1 (stereo not drawn) .
Result: > 10000 µg/mL

Task: State LC50 (Panonychus ulmi) of Clc1ccccc1-c1nnc(-c2ccccc2Cl)nn1 .
Result: > 10000 µg/mL
